system: menschlicher promyelocytischer Tumorzellen HL-60; test: Differentiation-inducing (DI) effect on HL-60 cells; type: cell-based; conditions: Konzentration 1 (head prints x10 M)
Give measured Differenzierte Zellen (%) for each item. Keep answers brief.
Write the number in % without appending the unit.

Given the compound C=C1/C(=C\C=C2/CCC[C@]3(C)[C@@H]([C@H](C)CCCC(C)(C)O)CC[C@@H]23)C[C@@H](O)C[C@@H]1O [Verbindung X, 1,25-Dihydroxychalecalciferol, reference compound] , what is its reported Differenzierte Zellen (%)?
19

Given the compound C=C1CC[C@H](O)C/C1=C/C=C1\CCC[C@]2(C)C([C@H](C)CCCC(C)(C)O)=CC[C@@H]12 [Verbindung B, 25-Hydroxy-16-dehydrocholecalciferol] , what is its reported Differenzierte Zellen (%)?
4

Given the compound "C=C1CC[C@H](O)C/C1=C/C=C1\CCC[C@]2(C)C([C@H](C)C/C=C/C(C)(C)O)=CC[C@@H]12" , what is its reported Differenzierte Zellen (%)?
2

Given the compound "C=C1/C(=C\C=C2/CCC[C@]3(C)C([C@H](C)C/C=C/C(C)(C)O)=CC[C@@H]23)C[C@@H](O)C[C@@H]1O" , what is its reported Differenzierte Zellen (%)?
92

====

system: gezüchteten menschlichen Keratinocyten; experiment: Morphological differentiation of cultured human keratinocytes (cell counts by cell type); assay type: cell-based; details: Dosis 10⁻⁸ M
Think of 100 x10⁴ as a floor: if Anzahl Zellen (x10⁴): Gesamtanzahl stands on it or above, it is t; beneath it, f.

Quick check, Anzahl Zellen (x10⁴): Gesamtanzahl >= 100 x10⁴? C=C1/C(=C\C=C2/CCC[C@]3(C)C([C@H](C)CC#CC(C)(C)O)=CC[C@@H]23)C[C@@H](O)C[C@@H]1O [Verbindung E]
f

Quick check, Anzahl Zellen (x10⁴): Gesamtanzahl >= 100 x10⁴? C=C1CC[C@H](O)C/C1=C/C=C1\CCC[C@]2(C)C([C@H](C)CCCC(C)(C)O)=CC[C@@H]12 [Verbindung B, 25-Hydroxy-16-dehydrocholecalciferol]
t

Quick check, Anzahl Zellen (x10⁴): Gesamtanzahl >= 100 x10⁴? C=C1/C(=C\C=C2/CCC[C@]3(C)C([C@H](C)CCCC(C)(C)O)=CC[C@@H]23)C[C@@H](O)C[C@@H]1O [Verbindung A, 1,25-Dihydroxy-16-dehydrocholecalciferol]
t

Quick check, Anzahl Zellen (x10⁴): Gesamtanzahl >= 100 x10⁴? C=C1/C(=C\C=C2/CCC[C@]3(C)C([C@H](C)C/C=C/C(C)(C)O)=CC[C@@H]23)C[C@@H](O)C[C@@H]1O [Verbindung C]
t

Quick check, Anzahl Zellen (x10⁴): Gesamtanzahl >= 100 x10⁴? C=C1CC[C@H](O)C/C1=C/C=C1\CCC[C@]2(C)C([C@H](C)C/C=C/C(C)(C)O)=CC[C@@H]12 [Verbindung D]
t

====

Give measured % Reduktion der Anzahl Zellen for each item. Keep answers brief.
tested on: menschlicher promyelocytischer Tumorzellen HL-60; assay: Antiproliferative (AP) effect on HL-60 cells; assay type: cell-based; conditions: Konzentration 1 (head prints x10 M)
Write the number in % without appending the unit.

Given the compound C=C1CC[C@H](O)C/C1=C/C=C1\CCC[C@]2(C)C([C@H](C)CCCC(C)(C)O)=CC[C@@H]12 [Verbindung B, 25-Hydroxy-16-dehydrocholecalciferol] , what is its reported % Reduktion der Anzahl Zellen?
8

Given the compound C=C1/C(=C\C=C2/CCC[C@]3(C)[C@@H]([C@H](C)CCCC(C)(C)O)CC[C@@H]23)C[C@@H](O)C[C@@H]1O [Verbindung X, 1,25-Dihydroxychalecalciferol, reference compound] , what is its reported % Reduktion der Anzahl Zellen?
16

Given the compound C=C1/C(=C\C=C2/CCC[C@]3(C)C([C@H](C)CCCC(C)(C)O)=CC[C@@H]23)C[C@@H](O)C[C@@H]1O [Verbindung A, 1,25-Dihydroxy-16-dehydrocholecalciferol] , what is its reported % Reduktion der Anzahl Zellen?
84

Given the compound "C=C1CC[C@H](O)C/C1=C/C=C1\CCC[C@]2(C)C([C@H](C)C/C=C/C(C)(C)O)=CC[C@@H]12" , what is its reported % Reduktion der Anzahl Zellen?
12

Given the compound "C=C1/C(=C\C=C2/CCC[C@]3(C)C([C@H](C)C/C=C/C(C)(C)O)=CC[C@@H]23)C[C@@H](O)C[C@@H]1O" , what is its reported % Reduktion der Anzahl Zellen?
81

Given the compound "C=C1/C(=C\C=C2/CCC[C@]3(C)C([C@H](C)CC#CC(C)(C)O)=CC[C@@H]23)C[C@@H](O)C[C@@H]1O" , what is its reported % Reduktion der Anzahl Zellen?
80

Given the compound "C=C1CC[C@H](O)C/C1=C/C=C1\CCC[C@]2(C)C([C@H](C)CC#CC(C)(C)O)=CC[C@@H]12" , what is its reported % Reduktion der Anzahl Zellen?
10
